# study-target: Bcl-2 (Homo sapiens)
# Sequence (P10415 whole entry): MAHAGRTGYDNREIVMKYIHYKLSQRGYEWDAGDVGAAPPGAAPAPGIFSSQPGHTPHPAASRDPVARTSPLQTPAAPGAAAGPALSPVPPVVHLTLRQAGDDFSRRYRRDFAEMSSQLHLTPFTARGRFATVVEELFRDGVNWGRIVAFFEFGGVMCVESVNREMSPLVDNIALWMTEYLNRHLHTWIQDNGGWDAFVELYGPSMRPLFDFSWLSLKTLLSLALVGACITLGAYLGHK
quantity-kind: Ki

## Input Reported Ki for Bcl-2 (Homo sapiens), given COc1c(CN2CCCC[C@H]2C(=O)N[C@H]2C[C@H]3C[C@@H]([C@@H]2C)C3(C)C)cccc1-c1cc(C(=O)N[C@@H](Cc2ccccc2)CN(C)C)cc(N(C)C)c1 ?
## Output > 50000 nM

New cases:
## Input Reported Ki for Bcl-2 (Homo sapiens), given CCN1CCC[C@@H]1CNC(=O)c1cc(-c2cccc(CN3C[C@H](O)[C@@H]([C@H](C)O)[C@H]3C(=O)NC3C[C@H]4C[C@@H]([C@@H]3C)C4(C)C)c2OC)cc(N(C)C)c1 (stereo partly shown) ?
## Output < 100 nM

====

# study-target: Bcl-2 (Homo sapiens)
pKi: −log10 of the molar value.
Reported pKi values follow for various compounds

Example results:
## Input Field request: pKi | item: COc1c(CN2CSC[C@H]2C(=O)N[C@H]2C[C@H]3C[C@@H]([C@@H]2C)C3(C)C)cccc1-c1cc(C(=O)N[C@@H](Cc2ccccc2)CN(C)C)cc(N(C)C)c1
## Output > 7.00

## Input Field request: pKi | item: COc1c(CN2C[C@@H](N)C[C@H]2C(=O)N[C@H]2C[C@H]3C[C@@H]([C@@H]2C)C3(C)C)cccc1-c1cc(C(=O)N[C@@H](Cc2ccccc2)CN(C)C)cc(N(C)C)c1
## Output > 7.00

## Input Field request: pKi | item: COc1c(CN2CSC(C)(C)[C@H]2C(=O)N[C@H]2C[C@H]3C[C@@H]([C@@H]2C)C3(C)C)cccc1-c1cc(C(=O)N[C@@H](Cc2ccccc2)CN(C)C)cc(N(C)C)c1
## Output > 7.00

New cases:
## Input Field request: pKi | item: COc1c(CN2CC[C@H](O)[C@H]2C(=O)N[C@H]2C[C@H]3C[C@@H]([C@@H]2C)C3(C)C)cccc1-c1cc(C(=O)N[C@@H](Cc2ccccc2)CN(C)C)cc(N(C)C)c1
## Output > 7.00

## Input Field request: pKi | item: COc1c(CN2C[C@H](O)[C@@H]([C@H](C)O)[C@H]2C(=O)NC2C[C@H]3C[C@@H]([C@@H]2C)C3(C)C)cccc1-c1cc(C(=O)NCCc2ccccc2)cc(N(C)C)c1 (some centres unmarked)
## Output > 7.00

## Input Field request: pKi | item: COc1c(CN2CCOC[C@H]2C(=O)N[C@H]2C[C@H]3C[C@@H]([C@@H]2C)C3(C)C)cccc1-c1cc(C(=O)N[C@@H](Cc2ccccc2)CN(C)C)cc(N(C)C)c1
## Output 4.30 to 6.52

## Input Field request: pKi | item: COc1c(CN2CCC[C@H]2C(=O)N[C@H]2C[C@H]3C[C@@H]([C@@H]2C)C3(C)C)cccc1-c1cc(C(=O)N[C@@H](Cc2ccccc2)CN(C)C)cc([N+](=O)[O-])c1
## Output < 4.30

## Input Field request: pKi | item: COc1c(CN2C[C@H](N)C[C@H]2C(=O)N[C@H]2C[C@H]3C[C@@H]([C@@H]2C)C3(C)C)cccc1-c1cc(C(=O)N[C@@H](Cc2ccccc2)CN(C)C)cc(N(C)C)c1
## Output > 7.00
